target: Tyk2 (Homo sapiens (Human), UniProt P29597); assay: pSTAT4 Cell Assay (MSD, NK92 cells); type: cell-based; settings: MSD
Sequence (P29597 whole entry): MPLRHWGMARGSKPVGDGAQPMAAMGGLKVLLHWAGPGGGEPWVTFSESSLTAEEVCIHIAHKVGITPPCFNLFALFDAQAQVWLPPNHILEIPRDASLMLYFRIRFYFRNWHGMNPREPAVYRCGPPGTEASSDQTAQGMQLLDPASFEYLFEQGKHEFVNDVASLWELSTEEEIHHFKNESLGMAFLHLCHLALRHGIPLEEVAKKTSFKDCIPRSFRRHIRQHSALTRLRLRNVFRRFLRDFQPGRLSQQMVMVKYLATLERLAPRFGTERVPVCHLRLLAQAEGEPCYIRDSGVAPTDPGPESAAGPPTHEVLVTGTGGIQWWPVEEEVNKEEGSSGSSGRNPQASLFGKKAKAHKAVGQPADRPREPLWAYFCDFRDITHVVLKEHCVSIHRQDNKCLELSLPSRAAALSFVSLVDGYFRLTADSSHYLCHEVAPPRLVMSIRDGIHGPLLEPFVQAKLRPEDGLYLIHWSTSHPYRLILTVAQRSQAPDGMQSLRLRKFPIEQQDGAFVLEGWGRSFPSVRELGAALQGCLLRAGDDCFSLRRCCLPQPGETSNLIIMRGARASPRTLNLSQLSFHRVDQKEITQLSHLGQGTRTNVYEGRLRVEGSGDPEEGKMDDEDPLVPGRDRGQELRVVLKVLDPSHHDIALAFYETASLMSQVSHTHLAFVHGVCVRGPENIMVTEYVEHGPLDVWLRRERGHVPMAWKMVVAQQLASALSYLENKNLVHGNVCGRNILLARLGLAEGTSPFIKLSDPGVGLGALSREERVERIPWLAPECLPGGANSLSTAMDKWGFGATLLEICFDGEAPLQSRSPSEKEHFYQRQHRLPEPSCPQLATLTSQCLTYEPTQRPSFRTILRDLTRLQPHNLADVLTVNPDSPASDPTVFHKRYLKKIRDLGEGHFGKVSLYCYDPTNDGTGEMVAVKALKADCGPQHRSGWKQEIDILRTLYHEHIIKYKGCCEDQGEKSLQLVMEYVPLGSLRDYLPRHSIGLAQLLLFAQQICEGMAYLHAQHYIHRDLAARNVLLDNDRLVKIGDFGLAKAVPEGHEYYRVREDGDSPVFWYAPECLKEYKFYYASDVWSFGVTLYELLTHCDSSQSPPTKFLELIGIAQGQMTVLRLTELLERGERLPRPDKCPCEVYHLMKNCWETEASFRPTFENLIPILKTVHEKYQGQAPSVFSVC
pIC50: −log10 of the molar value.
ENDPOINT: pIC50

compound="CCOc1cnc(NC(C)=O)cc1Nc1cc(OC2CC(C)C2)nc(C(C)(F)F)n1 (centres unmarked)" endpoint=pIC50 reading="≥ 8.00"
compound=COc1cnc(NC(C)=O)cc1Nc1cc(-c2ccc3nc(C)cn3n2)nc(C(C)(F)F)n1 endpoint=pIC50 reading="7.00 to 8.00"
compound=Cc1cc(Nc2cc(NC(N)=O)ncc2-c2ccc(C#N)cn2)nc(C(C)(F)F)n1 endpoint=pIC50 reading="≥ 8.00"
compound=CC(=O)Nc1cc(Nc2cc(C)nc(C(C)(F)F)n2)c(-c2ccc(C(F)F)nn2)cn1 endpoint=pIC50 reading="≥ 8.00"
compound="CC(=O)Nc1cc(Nc2cc(C)nc(C(C)(F)F)n2)c(OCC2CCCOC2)cn1 (centres unmarked)" endpoint=pIC50 reading="≥ 8.00"
compound=CC(=O)Nc1cc(Nc2ccnc(C(C)(F)F)n2)c(-c2ccn3nccc3n2)cn1 endpoint=pIC50 reading="≥ 8.00"
compound=CC(=O)Nc1cc(Nc2cc(-c3cnn(C(C)C)c3)nc(C(C)(F)F)n2)c(O[C@H]2C[C@@H](F)C2)cn1 endpoint=pIC50 reading="≥ 8.00"
compound=COc1ccnc(COc2cnc(NC(C)=O)cc2Nc2cc(C)nc(C(C)(F)F)n2)c1 endpoint=pIC50 reading="7.00 to 8.00"
